Test system: SK-OV-3
Assay: NCI tumour cell line growth inhibition, 48 h
Activity calls are given as the source filed them. Cut-off read from the data, not from the text of the source: active = GI50 up to about 1.1 µM and inactive = higher.
In this section, each of the compounds is paired with its reported GI50.

                                   compound       readout_value
0  CC(C)(C)OC(=O)n1cc(C2CN(O)C(=O)C23CCC(=O)N3Cc2ccccc2)c2ccccc21 (centres undefined)  23.9 µM (inactive)
1  COC(=O)[C@]1(CCC(C)=O)C(=O)C=CN([C@H](C)c2ccccc2)[C@@H]1Cc1ccc(OC)c(OCc2ccccc2)c1I  35.4 µM (inactive)
2        CC(C)(CN1CCCCC1)C(=O)/C=C/c1ccccc1  21.3 µM (inactive)
3  COC(=O)C(C(=O)C(=O)Nc1c(Cl)cc([N+](=O)[O-])cc1Cl)c1csc(-n2nc(C3=CCCCC3)cc2-c2ccccc2)n1 (centres undefined)  34.3 µM (inactive)
4  CCN(C(=O)N[C@@H](Cc1ccccc1)C(=O)N[C@@H](CC(C)C)C(=O)OC)c1ccccc1  40.6 µM (inactive)

Q: Form field: reported GI50 of `C#C[C@]1(O)CC[C@H]2[C@@H]3CCc4cc(OC(=O)c5cccc6cc7ccccc7nc56)ccc4[C@H]3CC[C@@]21C`
A: 62.1 µM (inactive)

Q: GI50 for `O=c1oc2c/c(=C\c3ccccc3)c(=O)c3cccc1c3-2` ?
A: > 100 µM (inactive)

Q: Could you tell me which GI50 is on file for `N#Cc1ccccc1Sc1ccccc1N` ?
A: > 100 µM (inactive)

Q: What value of GI50 has been reported for the following compound? COC1=CC(=O)[C@]2(C)[C@H](C1=O)C(C)[C@H]2c1ccccc1 (some centres undefined)
A: > 100 µM (inactive)

====

System: IGROV-1
Assay: NCI tumour cell line growth inhibition, 48 h
Calls of active or inactive are those of the source. Cut-off read from the data, not from the text of the source: active = GI50 up to about 1.1 µM and inactive = higher.
Output constraint: value belongs to active, inactive

>>> print(df.to_string())
                                   compound  test_system  class_assignment
0  CC(C)=CC[C@]12CCN(C)[C@H]1N(S(=O)(=O)c1ccccc1)c1ccccc12      IGROV-1          inactive
1  CC(C)CC/N=c1/cc2n(-c3ccc(Cl)cc3)c3ccccc3nc-2cc1Nc1ccc(Cl)cc1      IGROV-1          inactive
2             O=Cc1c(-c2ccccc2)nc2ccccc2c1O      IGROV-1          inactive
3          Cc1ccc(C(=O)NC(C)C)cc1/N=N/N(C)C      IGROV-1          inactive
4  O=C1NC(O)c2cc3ccccc3cc2O1 (stereo unspecified)      IGROV-1          inactive
5                    C#CCOCn1cnc2ncnc(N)c21      IGROV-1          inactive

Q: Recorded test outcome, item `O=c1oc2c/c(=C\c3ccccc3)c(=O)c3cccc1c3-2`
A: inactive

Q: Call for entry `CN(C)CCNC(=O)c1cccc2[nH]c(-c3ccncc3)nc12` :
A: inactive

====

Tested on: MCF7
Assay: NCI tumour cell line growth inhibition, 48 h
Activity calls are given as the source filed them. Rule as the data show it: active = GI50 up to about 1.1 µM and inactive = higher.
Reported GI50 values are given for each entry in this list.

>>> df
                                   compound        readout_value
0  CC1=NN(c2cccc(Cl)c2)C2(C1=C/C=C/c1ccccc1)C(Cl)C(=O)N2c1nc2ccccc2s1 (stereo not given)   9.14 µM (inactive)
1           C=CCOC(=O)Cn1cc(C)c(=O)[nH]c1=O  > 100 µM (inactive)
2          Nc1nc(N)c2ncn(-c3ccc(Br)cc3)c2n1   20.3 µM (inactive)

Q: GI50 lookup needed for `CC(=O)OCCOCn1c2c(c(=S)[nH]c1=O)CCC2` , thanks.
A: > 100 µM (inactive)

Q: I would be grateful if you could share the reported GI50 for CC(C)[Si](CC1=CCCCC12C(=O)N(COCC[Si](C)(C)C)c1ccccc12)(C(C)C)C(C)C (stereo not given) .
A: 61 µM (inactive)

====

Test system: TK-10
Assay: NCI tumour cell line growth inhibition, 48 h
Activity calls are given as the source filed them. No stated cut-off is given here; in the data, active = GI50 up to about 1.1 µM and inactive = higher.
GI50 reference

Please review the following examples before continuing.
In [3]: df
Out[3]:
                                   compound  quantity_name        readout_value
0          CCCc1cc(=O)oc2c(C=O)c(O)cc(O)c12           GI50  > 100 µM (inactive)
1                   C#CCN(C)C(=O)N(CC#C)N=O           GI50  > 100 µM (inactive)
2  CC1CCC(C(C)C)C(O[C@@H]2OC(=O)C[C@@H]2Sc2ccccc2)C1 (stereo not given in full)           GI50   53.3 µM (inactive)
3  O=c1[nH]nc(Cc2ccccc2)n1/N=C\CC/C=N\n1c(Cc2ccccc2)n[nH]c1=O           GI50  > 100 µM (inactive)
4  COc1cc(C2=N/C(=C/c3cccs3)C(=O)O2)cc(OC)c1OC           GI50  > 100 µM (inactive)

Q: Notebook: pull reported GI50 for TK-10, entry `CN(C)CCNC(=O)c1cccc2c1nc(-c1ccccc1)c1ccccc12`
A: 3.93 µM (inactive)

Q: Checklist item: GI50 tested on TK-10, entry `N#Cc1ccccc1Sc1ccccc1N` , value?
A: > 100 µM (inactive)

Q: I'm curious: which GI50 was measured for `COc1cc2c(cc1OC)C(=O)N(c1ccc(O)cc1)C2=O` tested on TK-10?
A: > 100 µM (inactive)

Q: API: value(readout=GI50, system=TK-10) for record `CN[C@H]1CC[C@]23C[C@]24CC[C@]2(C)[C@@H]([C@H](C)N(C)C)CC[C@@]2(C)[C@@H]4CC[C@H]3C1(C)C`
A: 18.3 µM (inactive)

Q: Please tell me: GI50 of `O=C(O)c1nc2ccc(C(F)(F)F)cc2nc1Nc1ccc(F)cc1` , system TK-10?
A: 36.6 µM (inactive)

====

System: SF-295
Test: NCI tumour cell line growth inhibition, 48 h
Activity calls are given as the source filed them. Rule as the data show it: active = GI50 up to about 1.1 µM and inactive = higher.
Quantity name: GI50

                                   compound       readout_value
0  COc1ccc2c(-c3ccc(OCCN(C)C)cc3)c(Oc3ccccc3)c(=O)oc2c1  3.17 µM (inactive)

Q: Name the reported GI50 value associated with the compound COc1cccc(NC(=O)C(=O)C(C(=O)c2ccccc2F)C2OC(=O)c3ccccc32)c1 (stereo not given)
A: 37.7 µM (inactive)

Q: Record request: GI50 value, item `COc1cc2c(cc1OC)C(=O)N(c1ccc(O)cc1)C2=O`
A: > 100 µM (inactive)

Q: Param item = `CC(C)=CC[C@]12CCN(C)[C@H]1N(S(=O)(=O)c1ccccc1)c1ccccc12` ; retrieve measured GI50.
A: > 54.7 µM (inactive)

Q: I am curious: what GI50 value has been reported for `COc1ccc2c(=O)c(O)c(-c3ccc(OC)c(OC)c3)oc2c1` ?
A: 10.1 µM (inactive)

====

Reported GI50 values for a set of molecules
Test system: RPMI-8226
Assay: NCI tumour cell line growth inhibition, 48 h
The source made the active and inactive calls. No stated cut-off is given here; in the data, active = GI50 up to about 1.1 µM and inactive = higher.

Use these answered entries as a reference point.
In [3]: df
Out[3]:
                                   molecule        readout_value
0  Cc1nc2c(sc(=S)n2-c2ccccc2)c2nc3ncccc3n12  > 100 µM (inactive)
1           Cc1nc(=O)[nH]c2[nH][nH]c(=O)c12  > 100 µM (inactive)
2  O=S(=O)(c1ccc2ccccc2c1)N1CCN(S(=O)(=O)c2ccc3ccccc3c2)CC1  > 100 µM (inactive)
3  C[n+]1[n-]o/c(=N\N=O)c1-c1cc(-c2/c(=N/N=O)o[n-][n+]2C)cc(-c2/c(=N\N=O)o[n-][n+]2C)c1  > 100 µM (inactive)

Next up:
Q: Give the reported GI50 for O=C1CSC2(CC(/C=C/C=C/c3ccccc3)=NN2c2cccc(S(=O)(=O)O)c2)N1c1nc2ccccc2s1 (stereo not given) (system: RPMI-8226).
A: 21.2 µM (inactive)

====

Test system: MDA-N
Assay: NCI tumour cell line growth inhibition, 48 h
The source made the active and inactive calls. Cut-off read from the data, not from the text of the source: active = GI50 up to about 1.1 µM and inactive = higher.
Bench note: report the call from active, inactive

Completed entries (count: 5):
>>> df
                                   compound  test_system  class_assignment
0     COc1ccc(C(=O)c2cc(OC)c(OC)c(OC)c2)cc1        MDA-N            active
1  O=C(Cc1nc2ncccc2[nH]c1=O)c1c[nH]c2ccccc12        MDA-N          inactive
2            COc1cccc2c3ccccc3c3nc[nH]c3c12        MDA-N          inactive
3          Nc1nc(N)c2ncn(-c3ccc(Br)cc3)c2n1        MDA-N          inactive
4  COc1cc(O)c2c(O)c3c(c4c2c1[C@]1(C4)C(C)=CCCC1(C)C)[C@H](O)[C@@]1(O)CC(O)=C(C(N)=O)C(=O)[C@@]1(O)C3=O        MDA-N            active

Read the next record carefully.
Q: For this compound, state the assay outcome: COC(=O)C(CCc1ccccc1I)C1=CCC2(CC1)OCCO2 (centres undefined)
A: inactive
